Target: human GlyT1c transporter (Homo sapiens (Human), UniProt P48067)
Assay: Radioligand binding assay using recombinant CHO cell membranes expressing human GlyT1
Conditions: human GlyT1c-expressing CHO cell membranes; read-out: radioligand binding Kiapp
pKi: −log10 of the molar value. Structures can show the parent of a compound that is named as a salt.
Consider the following compounds; for each one, report its pKi.

What does the record list as pKi for CCOC(=O)NC1CCc2ccc(OCCNS(=O)(=O)CCCF)cc2C1Cc1ccc(Cl)c(Cl)c1 (stereo not shown) [Example 22] ?
≥ 5.00

What does the record list as pKi for CCOC(=O)NC1CCc2ccc(OCCNS(=O)(=O)c3cnn(C)c3)cc2C1Cc1ccccc1Cl (stereo not shown) [Example 299] ?
< 5.00

What does the record list as pKi for Cn1cnc(S(=O)(=O)NCc2ccc3c(c2)C(Cc2cccc(F)c2)C(N2CCC2)CC3)c1 (stereo not shown) [Example 256, hydrochloride] ?
≥ 7.00

What does the record list as pKi for Cn1cnc(S(=O)(=O)NCc2ccc3c(c2)C(Cc2ccccc2)C(N2CCCC2=O)CC3)c1 (stereo not shown) [Example 263] ?
≥ 6.00

* * *

Target: human GlyT1c transporter (Homo sapiens (Human))
Test: Radioligand binding assay using recombinant CHO cell membranes expressing human GlyT1
Settings: human GlyT1c-expressing CHO cell membranes; read-out: radioligand binding Kiapp
pKi: −log10 of the molar value. Counter-ions that a name gives are not always drawn.
Consider the following compounds; for each one, report its pKi.

What does the record list as pKi for CCOC(=O)NC1CCc2ccc(OCCNS(=O)(=O)c3cnc(C)[nH]3)cc2C1Cc1cccc(Cl)c1 (centres unmarked) ?
≥ 5.00

What does the record list as pKi for Cc1ccc(S(=O)(=O)NCCOc2ccc3c(c2)C(Cc2cccc(Cl)c2)C(N)CC3)s1 (centres unmarked) [Example 68, hydrochloride] ?
≥ 6.00

What does the record list as pKi for C[Si](C)(C)CCS(=O)(=O)NCCOc1ccc2c(c1)C(Cc1ccc(Cl)c(Cl)c1)C(N)CC2 (centres unmarked) [Example 86, hydrochloride] ?
≥ 5.00

What does the record list as pKi for CCNC1CCc2ccc(CNS(=O)(=O)c3cnn(C)c3)cc2C1Cc1cccc(F)c1 (centres unmarked) [Example 200, hydrochloride] ?
≥ 7.00

What does the record list as pKi for CCCS(=O)(=O)NCCCc1ccc2c(c1)C(Cc1ccc(F)cc1)C(N)CC2 (centres unmarked) [Example 213, hydrochloride] ?
≥ 7.00

What does the record list as pKi for NC1CCc2ccc(OCCNS(=O)(=O)c3cccs3)cc2C1Cc1ccc(Cl)c(Cl)c1 (centres unmarked) [Example 17, hydrochloride] ?
≥ 6.00

What does the record list as pKi for CCOC(=O)NC1CCc2ccc(OCCNS(=O)(=O)CCC(F)(F)F)cc2C1Cc1ccc(Cl)c(Cl)c1 (centres unmarked) ?
≥ 5.00

What does the record list as pKi for CNC1CCc2ccc(OCCNS(=O)(=O)c3ccn(C)c3)cc2C1Cc1cc(F)cc(F)c1 (single isomer, unassigned; enantiomer 1) [Example 241, hydrochloride] ?
≥ 7.00

What does the record list as pKi for CCOC(=O)NC1CCc2ccc(OCCNS(C)(=O)=O)cc2C1Cc1ccc(Cl)c(Cl)c1 (centres unmarked) ?
≤ 5.00

What does the record list as pKi for CCCS(=O)(=O)NCCc1ccc2c(c1)C(Cc1cccc(Cl)c1)C(N)CC2 (centres unmarked) [Example 304, hydrochloride] ?
≥ 6.00

What does the record list as pKi for Cn1cc(S(=O)(=O)NCCOc2ccc3c(c2)C(Cc2ccc(Cl)cc2Cl)C(N)CC3)cn1 (centres unmarked) [Example 71, hydrochloride] ?
≥ 8.00

What does the record list as pKi for CCOC(=O)NC1CCc2ccc(OCCNS(=O)(=O)c3cnn(CC)c3)cc2C1Cc1cccc(Cl)c1 (centres unmarked) ?
≥ 5.00

What does the record list as pKi for NC1CCc2ccc(OCCNS(=O)(=O)CC3CC3)cc2C1Cc1cc(F)cc(Cl)c1 (centres unmarked) [Example 150, hydrochloride] ?
≥ 8.00

What does the record list as pKi for CCCS(=O)(=O)N1CC(COc2ccc3c(c2)C(Cc2ccccc2)C(N)CC3)C1 (centres unmarked) [Example 292, hydrochloride] ?
≥ 6.00

What does the record list as pKi for CCCS(=O)(=O)N(C)CCOc1ccc2c(c1)C(Cc1ccc(Cl)c(Cl)c1)C(N)CC2 (centres unmarked) [Example 11, hydrochloride] ?
≥ 7.00

What does the record list as pKi for CCOC(=O)NC1CCc2ccc(OCCNS(=O)(=O)c3ccn(C)c3)cc2C1Cc1cc(F)cc(F)c1 (centres unmarked) ?
≥ 6.00

What does the record list as pKi for Cn1ccc(S(=O)(=O)NCc2ccc3c(c2)C(Cc2ccccc2)C(N2CCC2)CC3)c1 (centres unmarked) [Example 251, trifluoroacetate] ?
≥ 7.00

What does the record list as pKi for CN(CCCc1ccc2c(c1)C(Cc1cccc(F)c1)C(N)CC2)S(=O)(=O)CC1CC1 (centres unmarked) [Example 230, hydrochloride] ?
≥ 8.00

What does the record list as pKi for CCN(CC)C1CCc2ccc(CCCNS(=O)(=O)CC3CC3)cc2C1Cc1ccc(Cl)cc1 (centres unmarked) [Example 274, hydrochloride] ?
≥ 7.00

What does the record list as pKi for CCCS(=O)(=O)NCCCc1ccc2c(c1)C(Cc1cccc(F)c1)C(N)CC2 (centres unmarked) [Example 209, hydrochloride] ?
≥ 7.00

What does the record list as pKi for NC1CCc2ccc(CNS(=O)(=O)C3CCC3)cc2C1Cc1ccc(F)c(F)c1 (centres unmarked) [Example 186, hydrochloride] ?
≥ 6.00

What does the record list as pKi for NC1CCc2ccc(OCCNS(=O)(=O)C3CC3)cc2C1Cc1ccccc1 (centres unmarked) [Example 102, hydrochloride] ?
≥ 6.00

What does the record list as pKi for NC1CCc2ccc(OCCNS(=O)(=O)CC3CC3)cc2C1Cc1ccccc1Cl (centres unmarked) [Example 295, hydrochloride] ?
≥ 6.00

What does the record list as pKi for CCN(CCOc1ccc2c(c1)C(Cc1ccc(Cl)c(Cl)c1)C(N)CC2)S(=O)(=O)c1cnn(C)c1 (centres unmarked) ?
≥ 6.00

What does the record list as pKi for Cn1cnc(S(=O)(=O)NCCOc2ccc3c(c2)C(Cc2cccc(F)c2)C(N2CCCC2)CC3)c1 (centres unmarked) [Example 140, hydrochloride] ?
≥ 8.00

What does the record list as pKi for CCCS(=O)(=O)N(C)CCOc1ccc2c(c1)C(Cc1ccc(Cl)cc1)C(NC(=O)OCC)CC2 (centres unmarked) ?
≥ 4.00

What does the record list as pKi for CCCS(=O)(=O)N(C)CCOc1ccc2c(c1)C(Cc1cccc(Cl)c1)C(NC(=O)OCC)CC2 (centres unmarked) ?
≥ 5.00

What does the record list as pKi for CCCS(=O)(=O)NCCc1ccc2c(c1)C(Cc1cccc(Cl)c1)C(NC)CC2 (centres unmarked) ?
≥ 7.00

What does the record list as pKi for CNC1CCc2ccc(OCCNS(=O)(=O)CC3CC3)cc2C1Cc1ccc(F)cc1 (centres unmarked) ?
≥ 8.00

* * *

Consider the following compounds; for each one, report its pKi.
Molecular target: human GlyT1c transporter (Homo sapiens (Human))
Test: Radioligand binding assay using recombinant CHO cell membranes expressing human GlyT1
Settings: human GlyT1c-expressing CHO cell membranes; read-out: radioligand binding Kiapp
pKi: −log10 of the molar value. Counter-ions that a name gives are not always drawn.

What does the record list as pKi for NC1CCc2ccc(CNS(=O)(=O)C3CCC3)cc2C1Cc1ccc(F)cc1 (stereo not shown) [Example 174, hydrochloride] ?
≥ 6.00

What does the record list as pKi for CN(CCCc1ccc2c(c1)C(Cc1ccccc1Cl)C(N)CC2)S(=O)(=O)CC1CC1 (stereo not shown) [Example 228, hydrochloride] ?
≥ 7.00

What does the record list as pKi for CNC1CCc2ccc(CCNS(=O)(=O)c3cn(C)cn3)cc2C1Cc1cccc(Cl)c1 (stereo not shown) [Example 313] ?
≥ 7.00

What does the record list as pKi for Cn1cnc(S(=O)(=O)NCCOc2ccc3c(c2)C(Cc2cccc(Cl)c2)C(N2CCCC2)CC3)c1 (stereo not shown) [Example 319, hydrochloride] ?
≥ 7.00

What does the record list as pKi for Cn1ccc(S(=O)(=O)NCCOc2ccc3c(c2)C(Cc2cccc(F)c2)C(N2CCC2)CC3)c1 (stereo not shown) [Example 269] ?
≥ 8.00

What does the record list as pKi for Cn1cnc(S(=O)(=O)NCCOc2ccc3c(c2)C(Cc2ccc(Cl)c(Cl)c2)C(NC=O)CC3)c1 (stereo not shown) [Example 20] ?
≥ 8.00

What does the record list as pKi for O=S(=O)(CC1CC1)NCCOc1ccc2c(c1)C(Cc1cc(F)cc(Cl)c1)C(N1CCC1)CC2 (stereo not shown) [Example 159] ?
≥ 7.00

* * *

Target: human GlyT1c (Homo sapiens (Human), UniProt P48067)
Sequence (P48067 whole entry): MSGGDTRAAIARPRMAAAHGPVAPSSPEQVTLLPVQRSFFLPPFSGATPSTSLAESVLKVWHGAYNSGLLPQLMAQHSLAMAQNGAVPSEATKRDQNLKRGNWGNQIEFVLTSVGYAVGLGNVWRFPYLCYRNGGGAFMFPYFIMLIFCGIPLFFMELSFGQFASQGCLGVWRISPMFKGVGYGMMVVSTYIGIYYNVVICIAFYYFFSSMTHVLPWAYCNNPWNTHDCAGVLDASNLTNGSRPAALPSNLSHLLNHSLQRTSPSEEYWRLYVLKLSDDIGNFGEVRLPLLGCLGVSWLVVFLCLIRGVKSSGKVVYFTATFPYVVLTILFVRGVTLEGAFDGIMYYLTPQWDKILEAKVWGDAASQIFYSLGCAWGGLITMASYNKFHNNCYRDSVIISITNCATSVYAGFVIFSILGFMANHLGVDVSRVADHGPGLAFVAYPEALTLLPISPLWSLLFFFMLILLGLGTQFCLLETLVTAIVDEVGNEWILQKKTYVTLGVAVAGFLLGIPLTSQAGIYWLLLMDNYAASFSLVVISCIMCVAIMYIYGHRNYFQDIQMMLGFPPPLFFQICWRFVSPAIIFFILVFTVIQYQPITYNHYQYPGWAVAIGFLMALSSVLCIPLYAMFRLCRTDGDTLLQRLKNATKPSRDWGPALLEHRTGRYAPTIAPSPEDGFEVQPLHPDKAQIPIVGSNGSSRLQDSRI
Assay: [3H]-Glycine uptake into recombinant CHO cells expressing human GlyT1
Type: cell-based
Conditions: hGlyT1c_5_CHO cells, 200 nM [3H]-glycine
Where a name gives a salt, the structure may show the parent alone.
quantityKind: IC50

What does the record list as IC50 for NC1CCc2ccc(OCCNS(=O)(=O)c3cccs3)cc2C1Cc1ccc(Cl)c(Cl)c1 (stereo not shown) [Example 17, hydrochloride] ?
≤ 10 µM

What does the record list as IC50 for Cn1cc(S(=O)(=O)NCCOc2ccc3c(c2)C(Cc2cccc(Cl)c2)C(N)CC3)cn1 (stereo not shown) [Example 47, hydrochloride] ?
≤ 0.01 µM

What does the record list as IC50 for CCOC(=O)NC1CCc2ccc(OCCNS(=O)(=O)c3cnn(C(F)F)c3)cc2C1Cc1cccc(Cl)c1 (stereo not shown) [Example 81] ?
≥ 1000 µM

What does the record list as IC50 for CCCS(=O)(=O)NCc1ccc2c(c1)C(Cc1ccc(Cl)c(Cl)c1)C(NC(=O)OC(C)(C)C)CC2 (stereo not shown) [Example 39] ?
≤ 1000 µM
